# credit: patent US11964052B2

test: Apparent pKa of LNP formulations, TNS fluorescence assay; format: physicochemical; conditions: LNP cationic lipid/DSPC/cholesterol/DMG-PEG 50/10/38.5/1.5 mol %, pH 3 to 9
measuredProperty: Apparant Pka

| compound | measuredProperty | recordedValue |
| --- | --- | --- |
| CCCCCCCCCCC(=O)OCC(CCCCN(CC=C(C)C)CCO)COC(=O)CC(CCCCCC)CCCCCCCC (stereo not shown) [Compound 94] | Apparant Pka | 6.793 |
| CCCCCCCCCCCC(=O)OCC(CN(CCCCCC(=O)OCC(CCCCCC)CCCCCC)CCN1CCC(O)C1)OC(=O)CCCCC (stereo not shown) [Compound 62] | Apparant Pka | 7.062 |
| CCCCC/C=C\C/C=C\CCCCCCCC(=O)OCC(CCCCN(CCO)C1CCC1)COC(=O)CC(CCCCCC)CCCCCCCC (stereo not shown) [Compound 89] | Apparant Pka | 6.926 |
| CCCCCCCCC(CCCCCCCC)CC(=O)OCC(CCCCN(CCO)C1CCC1)COC(=O)CCCCC (stereo not shown) [Compound 60] | Apparant Pka | 6.985 |

---

assay: Lipid nanoparticle size and polydispersity by dynamic light scattering (Malvern Zetasizer Nano ZS); assay type: physicochemical; details: LNP of cationic lipid/DSPC/cholesterol/PEG-lipid 50:10:38.5:1.5 with mRNA

| compound | polydispersity |
| --- | --- |
| CCCCCCCCC(CCCCCC)CC(=O)OCC(CCCCN(CCN(CC)CCO)C1CCC1)COC(=O)CC(CCCCCC)CCCCCCCC (stereo not drawn) | 0.013 |
| CCCCCCCCCCCCOCC(CN(CCCCCC)CCN(CCO)C1CCC1)OCCCCCCCCCCCC (stereo not drawn) | 0.060 |
| CCCCC/C=C\C/C=C\CCCCCCCC(=O)OCC(CCCCN(CCO)C1CCCCC1)COC(=O)CC(CCCCCC)CCCCCCCC (stereo not drawn) | 0.055 |
| CCCCCCCCCCCCOCC(CN(CCCCCC(=O)OCC(CCCCCC)CCCCCCCC)CCN(CCO)C1CCCC1)OCCCCCCCCCCCC (stereo not drawn) | 0.110 |
| CCCCCCCCCCCCOCC(CN(C)CCN(CCO)C1CCCCC1)OCCCCCC (stereo not drawn) | 0.289 |
| CCCCCCCCCCC(=O)OCC(CCCCN(CCO)C1CCCCCCC1)COC(=O)CC(CCCCCC)CCCCCCCC (stereo not drawn) | 0.111 |
| CCCCCCCCCCCCCCCC(=O)OCC(CCCCN(CCO)C1CCCCC1)COC(=O)CC(CCCCCC)CCCCCCCC (stereo not drawn) | 0.03 |
| CCCCCCCCC(CCCCCC)COC(=O)CCOCC(CN(CCCCCC)CCN(CCO)C1CCCCCC1)OCCC(=O)OCC(CCCCCC)CCCCCCCC (stereo not drawn) | 0.067 |
| CCCCCCCCCCCCOCC(CN(C)CCN(CCO)C1CCC1)OC(=O)CCCCCCCCCCC (stereo not drawn) | 0.155 |

---

# Apparant Pka per record follows
test: Apparent pKa of LNP formulations, TNS fluorescence assay; type: physicochemical; settings: LNP cationic lipid/DSPC/cholesterol/DMG-PEG 50/10/38.5/1.5 mol %, pH 3 to 9

| molecule | Apparant Pka |
| --- | --- |
| CCCCCCCCCCCCOCC(CN(CCCCCCCCCCCC)CCN(CCO)C1CCC1)OCCCCCCCCCCCC (stereo not drawn) | 5.835 |
| CCCCCCCCCCCCCCCCCCOCC(CN(CCCCCC(=O)OCCCCCCCCCC)CCN(CCO)C1CCC1)OCCCCCC (stereo not drawn) | 6.047 |
| CCCCCCCCCCCCOCC(CN(CCCCCC(=O)OCC(CCCCCC)CCCCCCCC)CCN(CCO)C1CCCC1)OCCCCCCCC (stereo not drawn) | 5.940 |

---

Assay: Lipid nanoparticle size and polydispersity by dynamic light scattering (Malvern Zetasizer Nano ZS)
Format: physicochemical
Details: LNP of cationic lipid/DSPC/cholesterol/PEG-lipid 50:10:38.5:1.5 with mRNA
Description: Briefly, a cationic lipid provided herein, DSPC, cholesterol, and PEG-lipid were solubilized in ethanol at a molar ratio of 50:10:38.5:1.5, and mRNA were diluted in 10 to 50 mM citrate buffer, pH=4. […] Lipid nanoparticle size were determined by dynamic light scattering using a Malvern Zetasizer Nano ZS (Malvern UK) using a 173° backscatter detection mode. […]
# size (nm) per record follows

| compound | unitOfMeasurement | size (nm) |
| --- | --- | --- |
| CCCCCCCCC(CCCCCCCC)CNC(=O)CCOC(COCCC(=O)OCC(CCCCCCCC)CCCCCCCC)CN(C)CCN(CCO)C1CCC1 (stereo not drawn) | nm | 70.83 |
| CCCCCCCCCCCCOCC(CN(CCCCCC(=O)OCC(CCCCCC)CCCCCCCC)CCN(CCO)C1CC1)OCCCCCC (stereo not drawn) | nm | 68.67 |
| CCCCC/C=C\C/C=C\CCCCCCCC(=O)OCC(CCCCN(CCO)C1CCCC1)COC(=O)CC(CCCCCC)CCCCCCCC (stereo not drawn) | nm | 70.38 |

---

experiment: Encapsulation efficiency of lipid nanoparticles, Quant-it Ribogreen RNA quantification assay; assay type: physicochemical; settings: LNP with mRNA
Response field label: string, one of label 1 (Encapsulation Efficiency strictly below 90%) or label 0.

| compound | labelClass |
| --- | --- |
| CCCCCCCCCCCCOCC(CN(CCCCCC(=O)OCC(CCCCCC)CCCCCCCC)CCN(CCO)C1CC1)OCCCCCCCCCCCC (stereo not shown) [Compound 27] | label 1 |
| CCCCCCCCCCCCOCC(CN(CCCCCC(=O)OCC(CCCCCC)CCCCCCCC)CCN(CCO)C1CCC1)OCCCCCCCC (stereo not shown) [Compound 33] | label 0 |
| CCCCCCCCCOC(=O)CCOCC(CN(C)CCN(CCO)C1CCC1)OCCC(=O)OCCCCCCCCC (stereo not shown) [Compound 43] | label 1 |
| CCCCCCCCCCCCOCC(O)CN(CCO)CCCCCC(=O)OCC(CCCCCC)CCCCCCCC (stereo not shown) [Compound 13] | label 0 |
| CCCCCCCCCCCCOCC(CN(CCCCCC(=O)OCC(CCCCCC)CCCCCCCC)CCN(CCO)C1CCCC1)OCCCCCC (stereo not shown) [Compound 24] | label 0 |
| CCCCC/C=C\C/C=C\CCCCCCCC(=O)OCC(CCCCN(CCO)C1CCCCCCC1)COC(=O)CC(CCCCCC)CCCCCCCC (stereo not shown) [Compound 101] | label 0 |

---

# Apparant Pka per record follows
test: Apparent pKa of LNP formulations, TNS fluorescence assay; type: physicochemical; details: LNP cationic lipid/DSPC/cholesterol/DMG-PEG 50/10/38.5/1.5 mol %, pH 3 to 9
measuredProperty: Apparant Pka

| compound | recordedValue |
| --- | --- |
| CCCCCCCCCCCCCCOC(COCCCCCCCCCCCC)CN(CCCCCC(=O)OCCCCCCCCCC)CCN(CCO)C1CCC1 (stereo not drawn) [Compound 47] | 6.120 |
| CCCCCCCCCCCCOCC(CN(CCCCCC(=O)OCC(CCCCCC)CCCCCCCC)CCN(CCO)C1CCC1)OC(C)=O (stereo not drawn) [Compound 20] | 5.96 |
| CCCCCCCCC(CCCCCC)CC(=O)OCC(CCCCN(CC=C(C)C)CCN(CCO)C1CCC1)COC(=O)CC(CCCCCC)CCCCCCCC (stereo not drawn) [Compound 78] | 6.166 |
| CCCCCCCCCCCCOCC(CN(C)CCN(CCO)C1CCCC1)OCCCCCC (stereo not drawn) [Compound 5] | 7.315 |
| CCCCCCCCCCC(=O)OCC(CCCCN(CCO)C1CCCCCCC1)COC(=O)CC(CCCCCC)CCCCCCCC (stereo not drawn) [Compound 93] | 6.377 |
| CCCCCCCCCCCCOCC(CN(C)CCN(CCO)C1CCCCC1)OCCCCCCCCCCCC (stereo not drawn) [Compound 6] | 7.035 |
| CCCCCCCCCCCCOCC(CN(CCO)C1CCC1)OCCCCCC(=O)OCC(CCCCCC)CCCCCCCC (stereo not drawn) [Compound 4] | 5.083 |
| CCCCCCCCCOC(=O)CCOCC(CN(C)CCN(CCO)C1CCC1)OCCC(=O)OCCCCCCCCC (stereo not drawn) [Compound 43] | 7.227 |
| CCCCCCCCCCCCOCC(CN(C)CCN(CCO)C1CCC1)OCCCCCCCCCCCC (stereo not drawn) [Compound 39] | 6.712 |

---

assay: Lipid nanoparticle size and polydispersity by dynamic light scattering (Malvern Zetasizer Nano ZS); assay type: physicochemical; conditions: LNP of cationic lipid/DSPC/cholesterol/PEG-lipid 50:10:38.5:1.5 with mRNA

| compound | size (nm) |
| --- | --- |
| CCCCCCCCCCCC(=O)OCC(CN(CCCCCC(=O)OCC(CCCCCC)CCCCCC)CCN1CCC(O)C1)OC(=O)CCCCC (centres unmarked) | 58.44 nm |
| CCCCCCCCCCCCCCCCOCC(CN(CCCCCC(=O)OCCCCCCCCCC)CCN(CCO)C1CCC1)OCCCCCC (centres unmarked) | 90.06 nm |
| CCCCCCCCCCCCOCC(CN(CCCCCC(=O)OCC(CCCCCC)CCCCCCCC)CCN(CCO)C1CCC1)OCCCCCCCCCCCC (centres unmarked) | 54.96 nm |
| CCCCCCCCC(CCCCCCCC)CNC(=O)CCOCC(CN(C)CCO)OCCC(=O)NCC(CCCCCCCC)CCCCCCCC (centres unmarked) | 58.14 nm |
| CCCCCCCCC(CCCCCC)CC(=O)OCC(CCCCN(CCN(CCC)CCO)C1CCC1)COC(=O)CC(CCCCCC)CCCCCCCC (centres unmarked) | 98.95 nm |
